src = patent US12215140B2

# Tested on: hemoglobin-haptoglobin complex
# Measurement Description: Stability of hemoglobin (as hemoglobin-haptoglobin complex) in samples preserved at 37° C. in preservation solution containing 1 unit/L haptoglobin, Hb measured by latex agglutination method (Examples 1 to 7)
# Design: species or system human
# Settings: Feces 1; arylboronic acid 15 mmol/L; 37° C., 7 days
# Description: Preservation solutions were prepared with the addition of 40 mmol/L HEPES (pH 6.8), 0.1% BSA, 0.1% NaN3, 1 unit/L haptoglobin, and 0 to 100 mmol/L phenylboronic acid. Samples obtained by adding hemoglobin-added fecal specimens to the preservation solutions so that the fecal concentration would be 0.5% were preserved at 37° C. for 0, 7, 14, and 21 days. […] The hemoglobin (Hb) concentrations (μg/L) in the preserved samples were measured by the latex agglutination method. […]
Reported Property: Hb concentration

Requested field: Hb concentration. Item: OB(O)c1cccc(O)c1 [3H-PBA, 3-hydroxyphenylboronic acid]
269 µg/L

Form field: reported Hb concentration of O=C(O)c1ccccc1B(O)O [2C-PBA, 2-carboxyphenylboronic acid]
196 µg/L

Item O=C(O)c1cccc(B(O)O)c1 [3C-PBA, 3-carboxyphenylboronic acid] has what recorded Hb concentration?
249 µg/L

# input compound: O=C(O)c1ccc(B(O)O)cc1 [4C-PBA, 4-carboxyphenylboronic acid] ; wanted: its Hb concentration
252 µg/L

* * *

# Experimental System: hemoglobin (Homo sapiens, UniProt P68871+P69905)
# Sequence (P69905 2-142): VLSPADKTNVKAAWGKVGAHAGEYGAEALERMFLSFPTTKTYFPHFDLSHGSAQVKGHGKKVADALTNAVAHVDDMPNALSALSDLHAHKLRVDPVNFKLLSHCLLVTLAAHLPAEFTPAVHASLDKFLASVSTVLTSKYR
# Sequence (P68871 2-147): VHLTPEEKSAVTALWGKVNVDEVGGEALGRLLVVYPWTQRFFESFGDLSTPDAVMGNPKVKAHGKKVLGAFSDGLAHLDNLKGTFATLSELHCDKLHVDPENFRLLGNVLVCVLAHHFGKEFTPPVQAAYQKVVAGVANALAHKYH
# Measurement Description: Stability of hemoglobin in samples preserved at 37° C. in preservation solution containing no haptoglobin, Hb measured by latex agglutination method (Examples 8, 9 and Table 10)
# Settings: No feces; 0 h at 37° C.; no phenylboronic acid, sugar 100 mmol/L
Reported Property: Recovery ratio with respect to Hb after 0 days (%)
State just the number; it will be interpreted in %.

What is its Recovery ratio with respect to Hb after 0 days for hemoglobin (Homo sapiens, UniProt P68871+P69905)? Entry: O=C(CO)[C@@H](O)[C@H](O)[C@H](O)CO [Fructose, fructose]
100

Form entry - test system: hemoglobin (Homo sapiens, UniProt P68871+P69905); read-out: Recovery ratio with respect to Hb after 0 days; molecule: OC[C@@H](O)[C@@H](O)[C@H](O)[C@@H](O)CO [Sorbitol, sorbitol]
100

Form entry - test system: hemoglobin (Homo sapiens, UniProt P68871+P69905); read-out: Recovery ratio with respect to Hb after 0 days; molecule: OC[C@H]1O[C@H](O[C@H]2O[C@H](CO)[C@@H](O)[C@H](O)[C@H]2O)[C@H](O)[C@@H](O)[C@@H]1O [Trehalose, trehalose]
100

API: value(readout=Recovery ratio with respect to Hb after 0 days, system=hemoglobin (Homo sapiens, UniProt P68871+P69905)) for record OC[C@H]1O[C@@](CO)(O[C@H]2O[C@H](CO)[C@@H](O)[C@H](O)[C@H]2O)[C@@H](O)[C@@H]1O [Sucrose, sucrose]
100

Lookup: Recovery ratio with respect to Hb after 0 days / hemoglobin (Homo sapiens, UniProt P68871+P69905) / OC[C@@H](O)[C@@H](O)[C@H](O)[C@H](O)CO [Mannitol, mannitol]
100

* * *

Assign Hb concentration to each entry below.
# Experimental System: hemoglobin (Homo sapiens, UniProt P68871+P69905)
# Measurement Description: Stability of hemoglobin in samples preserved at 37° C. in preservation solution containing no haptoglobin, Hb measured by latex agglutination method (Examples 8, 9 and Table 10)
# Settings: Feces 1; 0 h at 37° C.; no phenylboronic acid, sugar 100 mmol/L

Query: Hb concentration; subject: O=C(CO)[C@@H](O)[C@H](O)[C@H](O)CO
281 µg/L

What Hb concentration value was documented for this compound, OC[C@@H](O)[C@@H](O)[C@H](O)[C@H](O)CO ?
276 µg/L

Hb concentration lookup needed for OC[C@@H](O)[C@@H](O)[C@H](O)[C@@H](O)CO , thanks.
290 µg/L

Entry under review: OC[C@H]1O[C@H](O[C@H]2O[C@H](CO)[C@@H](O)[C@H](O)[C@H]2O)[C@H](O)[C@@H](O)[C@@H]1O . Reported Hb concentration?
268 µg/L

Look up Hb concentration: OC[C@H]1O[C@@](CO)(O[C@H]2O[C@H](CO)[C@@H](O)[C@H](O)[C@H]2O)[C@@H](O)[C@@H]1O
271 µg/L
